Test system: SNB-75
Test: NCI tumour cell line growth inhibition, 48 h
Activity calls are given as the source filed them. Cut-off read from the data, not from the text of the source: active = GI50 up to about 1.1 µM and inactive = higher.
Value Type: GI50

Examples with answers:
[
  {
    "Molecule": "CCN(CC)/[N+]([O-])=N/OS(=O)(=O)N(C)C",
    "Value": "> 100 µM (inactive)"
  },
  {
    "Molecule": "O=C(CCCN1CCC(Nc2ccccc2)(c2nnnn2C2CCCCC2)CC1)c1ccc(F)cc1",
    "Value": "10.2 µM (inactive)"
  },
  {
    "Molecule": "Cc1c(C(=O)CSc2nc3cc([N+](=O)[O-])ccc3[nH]2)c(=O)n(-c2ccccc2)n1C",
    "Value": "> 100 µM (inactive)"
  },
  {
    "Molecule": "O=C1CN2C(Cl)(Cl)C2(c2ccccc2)c2cc(Cl)ccc2N1CC(F)(F)F (centres undefined)",
    "Value": "13 µM (inactive)"
  }
]

Please give GI50, item by item, for the list that follows.
1. C[N+]1(C)C/C(=C\c2ccc(O)cc2)C(=O)/C(=C/c2ccc(O)cc2)C1
2. CCN(CC)CCNc1nc(N)c(C#N)c(C#N)c1C#N
3. CC(C)(C)/C(O)=C\c1nc2cc(F)c(F)cc2[nH]c1=O
4. C/C=C(\C)C(=O)N1c2ccccc2CC1c1c(C)[nH]c2ccccc12 (centres undefined)
5. C[N+](C)(C)CC(=O)N/N=C(\C(=O)NC1=C(Cl)C(=O)c2ccccc2C1=O)C(C#N)c1nc(-c2ccc([N+](=O)[O-])cc2)cs1 (centres undefined)

> 100 µM (inactive)
> 10 µM (inactive)
> 100 µM (inactive)
35 µM (inactive)
7.23 µM (inactive)

* * *

Test system: OVCAR-3
Assay: NCI tumour cell line growth inhibition, 48 h
Active and inactive are the calls of the source. Cut-off read from the data, not from the text of the source: active = GI50 up to about 1.1 µM and inactive = higher.
Reply using exactly one outcome from class 1 for active, class 0 for inactive

[
  {
    "Compound": "O=C(C#Cc1ccccc1)Nc1ccccc1CC(c1c[nH]c2ccccc12)c1c[nH]c2ccccc12",
    "Measurement Target": "OVCAR-3",
    "Category Label": "class 0"
  },
  {
    "Compound": "CCOC(=O)Cn1nc2ccc(Nc3nc4ccccc4nc3C(=O)OCC)cc2n1",
    "Measurement Target": "OVCAR-3",
    "Category Label": "class 0"
  },
  {
    "Compound": "OC1CC(O)O[C@H](c2ccccc2)C1 (stereo partly specified)",
    "Measurement Target": "OVCAR-3",
    "Category Label": "class 0"
  },
  {
    "Compound": "O=c1ncc(F)cn1C1OC(CO)C(O)C1O (stereo unspecified)",
    "Measurement Target": "OVCAR-3",
    "Category Label": "class 0"
  },
  {
    "Compound": "O=C(NNc1nc(-c2ccccc2)cs1)Nc1ccccc1",
    "Measurement Target": "OVCAR-3",
    "Category Label": "class 0"
  },
  {
    "Compound": "O=C(C1OC1c1cccc([N+](=O)[O-])c1)C12CC3CC(CC(C3)C1)C2 (stereo unspecified)",
    "Measurement Target": "OVCAR-3",
    "Category Label": "class 0"
  }
]

Which outcome was assigned to CN1CN(c2ccccc2)C2(CCN(Cc3csc4ccccc34)CC2)C1=O in this test?
class 0

For Cc1c(N2CCOCC2)nc2ccc(Cl)cc2c1-c1ccccc1 , which call appears in the assay record?
class 0

Dear colleague, could you share the recorded outcome for N#Cc1c(C#N)c(-c2cccc([N+](=O)[O-])c2)n(-c2ccccc2)c1N when you have a moment?
class 0

Look up the recorded call for Nc1ccc(C(=O)c2cn(CCN3CCOCC3)c3ccccc23)c2ccccc12 in this test.
class 0

Outcome logged for CC12CCC([C@H](Nc3cc(C(F)(F)F)cc(C(F)(F)F)c3)C1=O)C2(C)C (stereo partly specified) in this assay:
class 0

Hi team, can someone confirm the assay call for O=C(O)CP(=O)(O)O ?
class 0

In this assay, the call recorded for CNC(=O)CC1NC(=O)c2csc(n2)-c2ccc(-c3nc(C4=NC(C(=O)N5CCCC5C(N)=O)CO4)cs3)nc2-c2csc(n2)-c2csc(n2)C(C(C)C)NC(=O)CNC(=O)c2csc(n2)C(C(C)C)NC(=O)c2nc1sc2C (stereo unspecified) was what?
class 1

Just curious, what result did Cc1cc2c(cc1C)OC(=O)CC2 get here?
class 0

Each compound tested received a call. Report the one for Cc1c(C(=O)c2ccccc2C(=O)O)c2ccccc2n1C .
class 0

Give the logged outcome of this assay for the following compound: CC(=O)Nc1ccc(C(=O)NN2C(=O)C(Cl)C2c2ccc([N+](=O)[O-])cc2)cc1 (stereo unspecified)
class 0

* * *

Test system: U-251
Assay: NCI tumour cell line growth inhibition, 48 h
Calls of active or inactive are those of the source. No stated cut-off is given here; in the data, active = GI50 up to about 1.1 µM and inactive = higher.
For each of the molecules below, state its GI50.

Parameter requested: GI50. Apply to each item below.
1. CC(=O)OC1CCN(C(=O)c2ccccc2)CC1CC1(c2cc3ccccc3[nH]2)OCCO1 (stereo unspecified)
2. Cc1nn(-c2ccccn2)c2c1C(SC#N)=C(C=O)CC2
3. CCOc1ccc2nc(NC(=O)C(=O)C(C#N)CC(C)(C)C=O)sc2c1 (stereo unspecified)
4. CC(=O)NNc1nc(C)c(C(/C=C/c2cccc([N+](=O)[O-])c2)=N/NC(=S)NN)s1
5. C=CCN(c1cc(OC)c2[nH]c(C(=O)OCC)c(C)c2c1[N+](=O)[O-])S(C)(=O)=O

1: 77.4 µM (inactive); 2: 15.5 µM (inactive); 3: > 100 µM (inactive); 4: > 100 µM (inactive); 5: 16.1 µM (inactive)

Param readout = GI50; param system = U-251; param query = CCOC(=O)NC(Nc1ccc([N+](=O)[O-])cc1)(C(F)(F)F)C(F)(F)F ; response: value
85.9 µM (inactive)

* * *

Tested on: M14
Experiment: NCI tumour cell line growth inhibition, 48 h
Calls of active or inactive are those of the source. No stated cut-off is given here; in the data, active = GI50 up to about 1.1 µM and inactive = higher.
Mark one answer only. Choices: true (active), false (inactive)

Please review the entries below; each comes with its answer.
[
  {
    "Compound": "CN1CCN(C)C12C=CC=CC21CC1",
    "Measurement Target": "M14",
    "Category Label": "false"
  },
  {
    "Compound": "C=C1C(=O)O[C@@H]2C[C@@]3(C)CCC[C@H](C)C3=C[C@H]12",
    "Measurement Target": "M14",
    "Category Label": "false"
  },
  {
    "Compound": "O=C1/C(=C2/C(=O)N(c3ccccc3)c3ccccc32)Nc2ccccc21",
    "Measurement Target": "M14",
    "Category Label": "false"
  },
  {
    "Compound": "O=c1c2c3c(sc2nc2n1sc1nc4sc5c(c4c(=O)n12)CCCC5)CCCC3",
    "Measurement Target": "M14",
    "Category Label": "false"
  }
]

Which outcome was assigned to O=S(=O)(/N=c1/[nH]c2ccccc2n1S(=O)(=O)c1ccccc1)c1ccccc1 in this test?
false

Any idea what this test logged for c1ccc(CSc2nnc3c4ccccc4c4ccccc4c3n2)cc1 ?
false

Could you please tell me the result logged for COc1cc2c(SCCN(C)C)nc3ccccc3c2c2ccccc12 in this assay?
false

What is the recorded call for this compound in the test? Cc1cc(S(=O)(=O)O)c(NC(=O)c2oc3cc(O)ccc3c(=O)c2C)cc1Cl
false

Please let me know the test result on file for O=C1O[B-](c2ccccc2)(c2ccccc2)[NH2+]C1CS (stereo not drawn) .
false

I'd appreciate the recorded outcome for Cc1cn(C2CC(O)C(CO[Si](C)(C)C(C)(C)C)OC2OC(C)C)c(=O)[nH]c1=O (stereo not drawn) from this test.
false

Just curious, what result did CCOC(=O)Nc1cc2c(c(N)n1)N=C(c1ccccc1)CN2 get here?
true

Hi, sorry to bother you, what did the test record for COC(=O)CNC(=O)CNC(=O)CSc1nnc(COc2ccc(Cl)cc2)n1-c1ccccc1 ?
false

* * *

Tested on: U-251
Assay: NCI tumour cell line growth inhibition, 48 h
Calls of active or inactive are those of the source. No stated cut-off is given here; in the data, active = GI50 up to about 1.1 µM and inactive = higher.
Your reply should match one of these outcome classes. active, inactive

[
  {
    "Compound": "C[C@]12CC[C@H]3[C@@H](CC[C@]4(O)C[C@@H](O)CC[C@]34C=O)[C@@]1(O)CC[C@@H]2C1=CC(=O)OC1",
    "Category Label": "active"
  },
  {
    "Compound": "CC1=C(N(C)C)C(=O)c2nc3n(c2C1=O)CCC3OC(N)=O (stereo not drawn)",
    "Category Label": "inactive"
  },
  {
    "Compound": "CSc1ncnc2c1ncn2C1OC(CO)C(O)OC1O (stereo not drawn)",
    "Category Label": "inactive"
  }
]

Status in this test for CC(C)(C)OC(=O)NC(Cc1ccc(OC(C)(C)C)cc1)C(=O)N[C@H]1CC[C@H](C(=O)O)C1 (stereo partly drawn) ?
inactive

Please share the test call associated with CCOC(=O)NC(=O)c1cn(CCN2CCNCC2)c(=O)[nH]c1=O .
inactive

Call for entry O=C1CCC(=O)C12CCc1cccc(O)c12 :
inactive

Record request — test call for Cc1c(/C=N/NC(=O)c2cc(Br)cc(Br)c2O)c(=O)n(-c2ccccc2)n1C
inactive

What was the test verdict on O=C(c1cccc2ccccc12)C1(Br)S(=O)(=O)OCCOS1(=O)=O ?
inactive

Recorded call for O=c1ncc(F)cn1C1OC(CO)C(O)C1O (stereo not drawn) ?
inactive

State the result this test recorded for Cc1ccc2nc3c(C(=O)NCCN(C)C)cccc3cc2c1 .
inactive

Tell me the assay call for O=C(/C=C/c1ccc(O)c(-c2cc(C(=O)/C=C/c3ccc(O)cc3)c(O)cc2O)c1)c1ccc(O)cc1O please.
inactive

Which outcome was entered for the compound COC(=O)Nc1nc2cc(C(=O)c3ccc[nH]3)ccc2[nH]1 in this test?
active

For CCOC(=O)C(Cl)(Cl)/S(=N\S(=O)(=O)c1ccccc1)NC(=O)c1ccccc1 (stereo not drawn) , which call appears in the assay record?
inactive
